The entries below are paired with their reported Soybean plant response rating (0 to 100 scale).
Tested on: soybean (Glycine max)
Assay: Test A postemergence application, visual injury rating 0-100
Format: in vivo
Settings: Postemergence, 31 g ai/ha, greenhouse 10 days; 0 no effect, 100 complete control
Please give only the number in your answer, with no unit.

Solved cases below.
{"compound": "CC1(C(=O)NC2C=CC(C(=O)NS(=O)(=O)C3CC3)C2)CN(c2cc(Cl)cc(Cl)c2)C(=O)O1 (stereo not drawn) [Compound 85]", "test value": 40}
{"compound": "CC1(C(=O)NC2C=CC(C(=O)NS(=O)(=O)C(C)(C)C)C2)CN(c2cc(F)cc(F)c2)C(=O)O1 (stereo not drawn) [Compound 80]", "test value": 70}

Now consider the entry below.
If you can, please state the reported Soybean plant response rating (0 to 100 scale) value of CC(C)COC(=O)C1C=CC(NC(=O)C2(C)CN(c3cc(Cl)cc(Cl)c3)C(=O)O2)C1 (stereo not drawn) [Compound 66] . 80

---

The entries below are paired with their reported Barnyardgrass plant response rating.
Tested on: barnyardgrass (Echinochloa crus-galli)
Assay: Test A preemergence soil spray, visual injury rating 0-100
Assay type: in vivo
Settings: 16 g ai/ha, 0 to 100 scale, 10 days
Please give only the number in your answer, with no unit.

Solved cases below.
{"compound": "CCOC(=O)C1=CCC(NC(=O)C2(C)CN(c3cc(F)cc(F)c3)C(=O)O2)C1 (stereo not shown)", "test value": 20}
{"compound": "C=CC1(C(=O)NC2CC(C(=O)OC)C2)CN(c2cc(F)cc(F)c2)C(=O)O1 (stereo not shown)", "test value": 40}
{"compound": "C=CC1(C(=O)NC2C=CC(C(=O)OC)C2)CN(c2cc(F)cc(F)c2)C(=O)O1 (single isomer, unassigned)", "test value": 60}

Now consider the entry below.
If you can, please state the reported Barnyardgrass plant response rating value of CC1(C(=O)NC2CC=C(C(=O)OCC(F)F)C2)CN(c2cc(Cl)cc(Cl)c2)C(=O)O1 (stereo not shown) . 30

---

The entries below are paired with their reported Galium plant response rating (0 to 100 scale).
Test system: galium (catchweed bedstraw, Galium aparine)
Test: Test A postemergence application, visual injury rating 0-100
Format: in vivo
Conditions: Postemergence, 125 g ai/ha, 10 days; 0 is no effect, 100 is complete control
Please give only the number in your answer, with no unit.

{"compound": "CC1(C(=O)NC2C=CC(C(=O)OCc3ccc(F)cc3)C2)CN(c2cc(F)cc(F)c2)C(=O)O1 (stereo not drawn)", "target desc": "galium (catchweed bedstraw, Galium aparine)", "test value": 80}
{"compound": "CC(C)OC(=O)C1C=CC(NC(=O)C2(C)CN(c3cc(F)cc(Cl)c3)C(=O)O2)C1 (stereo not drawn)", "target desc": "galium (catchweed bedstraw, Galium aparine)", "test value": 90}
{"compound": "CC1(C(=O)NC2C=CC(C(=O)OCC(F)(F)F)C2)CN(c2cc(Cl)cc(Cl)c2)C(=O)O1 (stereo not drawn)", "target desc": "galium (catchweed bedstraw, Galium aparine)", "test value": 80}
{"compound": "CSCCOC(=O)C1=CCC(NC(=O)C2(C)CN(c3cc(F)cc(F)c3)C(=O)O2)C1 (stereo not drawn)", "target desc": "galium (catchweed bedstraw, Galium aparine)", "test value": 80}

If you can, please state the reported Galium plant response rating (0 to 100 scale) value of CC1(C(=O)NC2CC=C(C(=O)NS(=O)(=O)C3CC3)C2)CN(c2cc(Cl)cc(Cl)c2)C(=O)O1 (stereo not drawn) . 80

If you can, please state the reported Galium plant response rating (0 to 100 scale) value of CC(=O)COC(=O)C1C=CC(NC(=O)C2(C)CN(c3cc(Cl)cc(Cl)c3)C(=O)O2)C1 (stereo not drawn) . 90
